Exercise: state measured TGI for each of the compounds provided.
Tested on: CAKI-1 renal
Protocol Details: NCI tumour cell line growth inhibition, 48 h

COc1ccc(-c2cc(O)c3nc4ccccc4n3c2)cc1 = > 100 µM
COC(=O)C1(C(C)C)CCc2c(OC)ccc(OC)c2C1=O (stereo not given) = > 100 µM
CCN(CC)N=Nc1c(C(N)=O)n[nH]c1C = > 100 µM
COc1cc(C(=O)N(C(=S)OCc2ccccn2)c2ccccc2)cc(OC)c1OC = > 100 µM
Cc1cc(NS(=O)(=O)c2ccc(Nc3c4ccccc4nc4c(C(=O)N5CCN(CCOS(C)(=O)=O)CC5)cccc34)cc2)no1 = > 100 µM

Take each entry in turn and give its TGI.
1. COC(=O)C([C@H](NC1(c2ccccc2)c2ccccc2-c2ccccc21)C(=O)OC)N(NC(=O)OCc1ccccc1)C(=O)OCc1ccccc1 (mixture of isomers)
2. CCOC(=O)C(SCCO)C(C(=O)OCC)n1cnc2c(=O)[nH]c(NC(C)=O)nc21 (stereo not given)
3. NS(=O)(=O)OC[C@@H]1C[C@@H](n2ccc3c(NC4CCc5ccccc54)ncnc32)C[C@@H]1O (stereo not given in full)
4. NC1=NCCC1(c1ccccc1)c1ccccn1 (stereo not given)
5. COc1cccc(C2c3cc4c(cc3OC(C)(N3CCCC3)C2C)OCO4)c1O (stereo not given)
6. NC(N)=N/N=C/c1c(-c2ccc(N)cc2)nc2sccn12
7. COc1cc2ccnc([C@@H](OC(=O)c3ccccc3)c3ccc(OC)c(OC)c3OC)c2cc1OC

[A]
1: > 100 µM; 2: > 100 µM; 3: > 100 µM; 4: > 100 µM; 5: 28.7 µM; 6: > 100 µM; 7: > 100 µM

----------
System: T-47D breast
Protocol Details: NCI tumour cell line growth inhibition, 48 h
Metric Name: GI50

Take a look at these entries with their results.
COC1/C=C/OC2(C)Oc3c(C)c(O)c4c(O)c(c(/C=N/Nc5ccc([N+](=O)[O-])cc5[N+](=O)[O-])c(O)c4c3C2=O)NC(=O)C(C)=C/C=C/C(C)C(O)C(C)C(O)C(C)C(OC(C)=O)C1C (stereo not drawn) = 2.07 µM
O=C(Nc1ccc(-n2ccc3c(NC(=O)c4ccccc4)nccc32)cc1)c1ccc(Cl)c(C(F)(F)F)c1 = 6.2 µM

Now take the following compound into account.
Per the reported T-47D breast data, C[C@@H](Oc1cc(-n2cnc3ccc(CN4CCN(C)CC4)cc32)sc1C(N)=O)c1ccccc1C(F)(F)F has GI50 of 3.35 µM

----------
Test system: T-47D breast
Protocol Details: NCI tumour cell line growth inhibition, 48 h
*1 amine or outer side, *2 acyl side, *3 side chain or, on linkers, in order; H or OH if unused. Where a SMILES comes first, the peptide text is derived from it. Bridges are numbered along the chain shown (N, C = ends). [ ]: non-standard residue; d: D form. The star is where a group is joined. Phe(3,5-F2) = N[C@@H](Cc1cc(F)cc(F)c1)C(=O)O; Pro(4R-Me) = C[C@H]1CN[C@H](C(=O)O)C1; aThr = C[C@H](O)[C@H](N)C(=O)O; Pip = O=C(O)[C@@H]1CCCCN1; X10 = Fc1cc(C2CC2)ccc1N*; CO = O=C([*:1])[*:2]
Metric Name: TGI

These recorded examples may help you get a feel for the data.
CN(C)C(=O)O/N=C1/C(c2c(O)[nH]c3ccccc23)=Nc2ccccc21 = 50.6 µM
Cc1ccc(Cl)c2[nH]c(-c3ccccc3)cc(=O)c12 = > 100 µM
O=C1NC(=NCCc2cccc(F)c2)S/C1=C\c1ccc2ncccc2c1 = > 25 µM

Would you mind giving TGI for every molecule in the list below?
1. C[C@@H]1C[C@H]2C(=O)O[C@@H](C)[C@H](NC(=O)[C@H](Cc3cc(F)cc(F)c3)NC(=O)Nc3ccc(C4CC4)cc3F)C(=O)N3CCC[C@H]3C(=O)N3CCCC[C@H]3C(=O)N[C@@H](C)C(=O)N2C1 ({X10-CO}-[Phe(3,5-F2)][aThr]P[Pip]A[Pro(4R-Me)]; ester 2-C)
2. Cc1ccc2c(C)c3c(ccc4ccccc43)c[n+]2c1
3. CCCCCCc1cc2cc(-c3csc(CC#N)n3)c(=O)oc2cc1O
4. O=C(Nc1ccc(-n2ccc3c(NC(=O)c4ccccc4)nccc32)cc1)c1ccc(Cl)c(C(F)(F)F)c1
5. O=C1CCCSC(=O)N1Cc1ccccc1

[A]
> 22.1 µM
7.18 µM
> 100 µM
20.4 µM
> 100 µM

Batch request: TGI for each of the following molecules.
1. COc1cc2nc3n(c(=O)c2cc1OC)-c1ccc([N+](=O)[O-])cc1C3=O
2. Cc1ccc(N=NC(=Nc2ccccc2)c2ccc(N(CCC#N)CCC#N)cc2)cc1
3. O=c1c2cc([N+](=O)[O-])cnc2sn1-c1ccc([N+](=O)[O-])cc1
4. COc1cc2c(c(OC)c1OC)C(=O)[C@@H]1[C@H]2N1C(N)=O
5. OC1CSSC1Cn1cnc2c(Nc3ccc(OCc4cccc(F)c4)c(Cl)c3)ncnc21 (configuration not stated)
6. C1CN(c2nc3c(nnc4nc(N5CCOCC5)sc43)s2)CCO1
7. COc1cccc(-c2cc(-c3cccc(NS(C)(=O)=O)c3)nc(N)c2C#N)c1O

[A]
> 100 µM
> 100 µM
83.6 µM
> 100 µM
8.4 µM
> 100 µM
58.6 µM

----------
Give TGI for every item shown.
Test system: SNB-19 CNS
Protocol Details: NCI tumour cell line growth inhibition, 48 h

Consider the following illustrative entries.
COC1/C=C/OC2(C)Oc3c(C)c(O)c4c(O)c(c(/C=N/Nc5ccc([N+](=O)[O-])cc5[N+](=O)[O-])c(O)c4c3C2=O)NC(=O)C(C)=C/C=C/C(C)C(O)C(C)C(O)C(C)C(OC(C)=O)C1C (configuration not stated) = 18.1 µM
CC(C)=CCc1c2c(c3occ(-c4ccc(O)cc4)c(=O)c3c1O)CC(C(C)(C)O)O2 (configuration not stated) = 31.3 µM

For every record below, what is its TGI?
1. CCOC(=O)C(SCCO)C(C(=O)OCC)n1cnc2c(=O)[nH]c(NC(C)=O)nc21 (configuration not stated)
2. NS(=O)(=O)c1ccc2c(c1)OCCOCCOCCOCCO2
3. CCCCCCc1cc2cc(-c3csc(CC#N)n3)c(=O)oc2cc1O
4. CC(C)CCS(=O)(=O)OCCCCOS(=O)(=O)CCC(C)C
5. Fc1[nH]nc2ccc([C@@H]3Nc4ccc5[nH]ncc5c4[C@H]4C5CCC(C5)[C@@H]34)cc12 (some centres not stated)
6. CC(C)(C)OC(=O)NCCCCC1NC(=O)[C@@H]2Cc3c([nH]c4ccccc34)C(C3CCCCC3)N2C1=O (some centres not stated)
7. OCc1cc2ccccc2c2c3c(ccc12)OCO3
8. COCO[C@@H]1C[C@H]2C(=O)Nc3ccccc3C(=O)N2C1

[A]
> 100 µM
> 100 µM
> 100 µM
> 100 µM
18.1 µM
> 100 µM
286 µM
> 100 µM

Report TGI for each item below.
1. COC(=O)c1cc(=O)nc2sc3cccc(C)c3n12
2. CCOC(=O)/C=C/CC(C)(C)CCOC(C)=O
3. O=C(O)CCC(NC(=O)c1ccc(Nc2nc3ccccc3nc2-c2cccs2)cc1)C(=O)O (configuration not stated)
4. C=CC1(C)CCC2C(=CCC3C2(C)CC(O)C(O)C3(C)COC2OC(C(=O)O)C(O)C(O)C2O)C1 (configuration not stated) (tested in a mixture with another compound)
5. Nc1c(C(=O)c2cccc(CCS(N)(=O)=O)c2)cnn1-c1ccc(F)cc1

[A]
1. > 100 µM
2. > 10 µM
3. > 100 µM
4. > 100 µM
5. > 25 µM

For every item in the list below, what is its measured TGI?
1. COC(=O)CC[N+]1=CCC(c2ccccc2)(c2ccccc2)O1
2. CCN(CC)N=Nc1c(C(N)=O)n[nH]c1C

[A]
["> 100 µM", "> 100 µM"]

----------
So I've got a bunch of molecules here, and I need their TGI values.
Tested on: COLO 205 colon
Protocol Details: NCI tumour cell line growth inhibition, 48 h

c1csc(-c2ccc(-c3cccc4nsnc34)s2)c1 = > 100 µM
S=C1Nc2ccccc2SC1c1ccccc1 (stereo not given) = > 100 µM
C[C@@H](Oc1cc(-n2cnc3ccc(CN4CCN(C)CC4)cc32)sc1C(N)=O)c1ccccc1C(F)(F)F = 0.699 µM

Dear colleague, could you please provide TGI for the molecules listed below?
1. c1ccc(-c2nc(-c3ccccc3SSc3ccccc3-c3nc(-c4ccccc4)nn3-c3ccccc3)n(-c3ccccc3)n2)cc1
2. COc1ccc(CC2c3cc4c(cc3CCN2C)OCO4)c(C=O)c1OC (stereo not given)
3. O=C1NC(=NCCc2cccc(F)c2)S/C1=C\c1ccc2ncccc2c1
4. Cc1nc2n(c1/C=C1/C(=O)Nc3cccc(Cl)c31)CCS2
5. Nc1c2c(nc3ccccc13)-c1ccccc1CC2
6. C[C@@H](NC(=O)[C@@H]1C[C@]1(C)COC(=O)c1cc([N+](=O)[O-])cc([N+](=O)[O-])c1)c1cccc2ccccc12
7. OC1CSSC1Cn1cnc2c(Nc3ccc(OCc4cccc(F)c4)c(Cl)c3)ncnc21 (stereo not given)

[A]
["> 100 µM", "> 100 µM", "> 25 µM", "> 100 µM", "15.8 µM", "> 100 µM", "8.69 µM"]

Hello, the source for this data is PubChem BioAssay (NCI), in case you need it.
